System: RAW-Dual (murine macrophage reporter line)
Assay: IRF reporter (Lucia luciferase) activity fold change vs agonist alone; higher = enhanced IRF activity
Conditions: modulator concentration 10 µM; agonist: 3'3'-cGAMP 10 ug/mL
Listed here: items and their measured IRF reporter.
Give the figure only, with no unit attached.

Before answering, review these 2 worked examples.
COMPOUND: Oc1ccc(C=NCc2ccccc2)cc1
IRF reporter: 0.921
--
COMPOUND: CCCOCCOC(=O)C1=C(C)NC2=C(C(=O)CCC2)C1c1ccc(F)c(F)c1 (stereo not drawn)
IRF reporter: 1.09

Req: For the compound CN(C)c1nc(CNC(=O)CSc2nc3ccccc3o2)nc(N(C)C)n1 , what IRF reporter is on record?
Resp: 0.959

Req: For the compound Nc1ccn([C@H]2CC[C@@H](CO)O2)c(=O)n1 , what IRF reporter is on record?
Resp: 1.03

Req: For the compound CCCCc1c(CCC)c(=N)c2ccccc2n1C.I , what IRF reporter is on record?
Resp: 1.09

* * *

System: RAW-Dual (murine macrophage reporter line)
Assay: IRF reporter (Lucia luciferase) activity fold change vs agonist alone; higher = enhanced IRF activity
Details: modulator concentration 10 µM; agonist: MPLA […]
Listed here: items and their measured IRF reporter.
Give the figure only, with no unit attached.

Before answering, review these 5 worked examples.
COMPOUND: Cc1ccc(C)n1-c1ccc(C(=O)OCC(=O)c2ccc([N+](=O)[O-])cc2)cc1
RECORDED RESULT: 1.01
//
COMPOUND: Cn1cnc2cc(NCc3ccc(Br)cc3)ccc21
RECORDED RESULT: 1.13
//
COMPOUND: CCC(C)C(=O)OC1CC(C)C=C2C=CC(C)C(CCC3CC(O)CC(=O)O3)C21 (configuration not stated)
RECORDED RESULT: 1.1
//
COMPOUND: O=C(c1ccc(I)cc1)N(C1CCCCC1)C1CCCCC1
RECORDED RESULT: 1.18
//
COMPOUND: CCCOCCOC(=O)C1=C(C)NC2=C(C(=O)CCC2)C1c1ccc(F)c(F)c1 (configuration not stated)
RECORDED RESULT: 1.2

Req: For the compound O=C1C(CCC(O)c2ccc(F)cc2)C(c2ccc(O)cc2)N1c1ccc(F)cc1 (configuration not stated) , what IRF reporter is on record?
Resp: 1.18

Req: For the compound CC(C)(C)c1cc(NCc2ccccn2)n2ncc(-c3ccc(Cl)cc3)c2n1 , what IRF reporter is on record?
Resp: 3.1

Req: For the compound COc1ccc(CCNC(=O)NCc2nnc3n2CCC(C(F)(F)F)C3)cc1 (configuration not stated) , what IRF reporter is on record?
Resp: 1.12

Req: For the compound COc1ccc(Cl)c(Nc2nc3ccccc3nc2NS(=O)(=O)c2cccc(NC(=O)C(C)(C)N)c2)c1 , what IRF reporter is on record?
Resp: 1.32

Req: For the compound Cc1cccc(CSc2nn3c(=O)c(C)nnc3s2)c1 , what IRF reporter is on record?
Resp: 1.26

Req: For the compound O=C(CCC1CCCC1)Nc1cccc(Cl)c1 , what IRF reporter is on record?
Resp: 1.87

Req: For the compound COc1ccc(Cc2nnc(C3CCN(S(C)(=O)=O)CC3)s2)cc1 , what IRF reporter is on record?
Resp: 1.09

* * *

Tested on: RAW-Dual (murine macrophage reporter line)
Assay: IRF reporter (Lucia luciferase) activity fold change vs agonist alone; higher = enhanced IRF activity
Conditions: modulator concentration 10 µM; agonist: 3'3'-cGAMP 10 ug/mL
Class 1: IRF reporter at least 0.9. Class -1: IRF reporter below 0.9.

Known results for compounds:
COMPOUND: COc1cc(OC)c(NC(=O)C2CCCN(c3ccc(-c4ccc(C)c(C)c4)nn3)C2)cc1Cl (stereo not drawn)
EXPERIMENTAL SYSTEM: RAW-Dual (murine macrophage reporter line)
DISCRETE LABEL: 1
--
COMPOUND: CC(=O)Oc1cc2c(s1)CCN(C(C(=O)C1CC1)c1ccccc1F)C2.Cl (stereo not drawn)
EXPERIMENTAL SYSTEM: RAW-Dual (murine macrophage reporter line)
DISCRETE LABEL: -1
--
COMPOUND: CC(C)(Oc1ccc(Cl)cc1)C(=O)Nc1cnoc1
EXPERIMENTAL SYSTEM: RAW-Dual (murine macrophage reporter line)
DISCRETE LABEL: 1
--
COMPOUND: Oc1ccccc1-c1cc(C(F)(F)F)on1
EXPERIMENTAL SYSTEM: RAW-Dual (murine macrophage reporter line)
DISCRETE LABEL: -1
--
COMPOUND: O=C(NCCCCNC(=O)c1cncc(Br)c1)c1cncc(Br)c1
EXPERIMENTAL SYSTEM: RAW-Dual (murine macrophage reporter line)
DISCRETE LABEL: 1
--
COMPOUND: O=C(O)CCCCC1CCSS1 (stereo not drawn)
EXPERIMENTAL SYSTEM: RAW-Dual (murine macrophage reporter line)
DISCRETE LABEL: 1

Req: I'd appreciate it if you could say whether CC(C)CN(C[C@@H](O)[C@H](Cc1ccccc1)NC(=O)O[C@H]1CO[C@H]2OCC[C@H]21)S(=O)(=O)c1ccc(N)cc1.CCO has IRF reporter at least equal to 0.9.
Resp: 1

Req: I'd appreciate it if you could say whether Cc1nnc(NN=Cc2ccc(O)c([N+](=O)[O-])c2)[nH]c1=O has IRF reporter at least equal to 0.9.
Resp: 1

Req: I'd appreciate it if you could say whether Cc1cc(C)c(NC(=O)c2ccc(Oc3nccs3)cc2)c(C)c1 has IRF reporter at least equal to 0.9.
Resp: -1

Req: I'd appreciate it if you could say whether CCCCc1oc2ccccc2c1C(=O)c1cc(I)c(OCCN(CC)CC)c(I)c1.Cl has IRF reporter at least equal to 0.9.
Resp: -1

* * *

Tested on: RAW-Dual (murine macrophage reporter line)
Assay: IRF reporter (Lucia luciferase) activity fold change vs agonist alone; higher = enhanced IRF activity
Conditions: modulator concentration 10 µM; agonist: MPLA […]
QUANTITY: IRF reporter
Give the figure only, with no unit attached.

Before answering, review these 8 worked examples.
COMPOUND: O=C(Cc1ccc(Cl)cc1)Nc1ccc2oc(-c3c(F)c(F)c(F)c(F)c3F)nc2c1
IRF reporter: 1.07
//
COMPOUND: Nc1nc(Cl)nc2c1ncn2[C@@H]1O[C@H](CO)[C@@H](O)[C@@H]1F
IRF reporter: 0.918
//
COMPOUND: O=C(NCCCCNC(=O)c1cncc(Br)c1)c1cncc(Br)c1
IRF reporter: 1.16
//
COMPOUND: O=S(=O)(c1ccc(Cl)cc1)N1CCN(C2CC3CCC2C3)CC1 (centres undefined)
IRF reporter: 1.24
//
COMPOUND: O=C(NCC1(c2ccc(F)cc2)CCOCC1)c1cnc2ccccc2n1
IRF reporter: 1.42
//
COMPOUND: CCN1C(C)=C(C(=O)OC)C(c2ccc([N+](=O)[O-])cc2)C(C(=O)OC)=C1C
IRF reporter: 0.961
//
COMPOUND: CC(C=CC1=C(C)CCCC1(C)C)=CC=CC(C)=CC(=O)O
IRF reporter: 0.904
//
COMPOUND: COc1ccccc1-n1ncc2c(C)nnc(SCC(=O)NCc3ccccc3Cl)c21
IRF reporter: 0.781

Req: For the compound CN(C)CC/C=C1/c2ccccc2Sc2ccc(Cl)cc21 , what IRF reporter is on record?
Resp: 1.23

Req: For the compound CN1CCN(c2nc3c(=O)[nH]cnc3n2C2OC(CO)C(O)C2O)CC1 (centres undefined) , what IRF reporter is on record?
Resp: 1.08

Req: For the compound CC(=NNC(N)=S)C1=CC(C)(C)CCC1 , what IRF reporter is on record?
Resp: 0.978

Req: For the compound COc1ccc2cc1Oc1ccc(cc1)C[C@H]1c3c(cc4c(c3Oc3cc5c(cc3OC)CCN(C)[C@@H]5C2)OCO4)CCN1C , what IRF reporter is on record?
Resp: 0.889

Req: For the compound CCN(CC)c1ccc(C=Nc2c(C)cc(C)cc2C)cc1 , what IRF reporter is on record?
Resp: 0.94

* * *

Test system: RAW-Dual (murine macrophage reporter line)
Assay: NF-kB reporter (SEAP) activity fold change vs agonist alone; higher = enhanced NF-kB activity
Conditions: modulator concentration 10 µM; agonist: CpG ODN 1826 0.5 ug/mL
Class 1: NF-kB reporter at least 1. Class -1: NF-kB reporter below 1.

Req: I'd appreciate it if you could say whether O=Cc1ccc(OCc2cccc([N+](=O)[O-])c2)c(Br)c1 has NF-kB reporter at least equal to 1.
Resp: -1

Req: I'd appreciate it if you could say whether CN1CCN(C2=Nc3cc(Cl)ccc3Nc3ccccc32)CC1 has NF-kB reporter at least equal to 1.
Resp: -1

Req: I'd appreciate it if you could say whether Cc1ccc(CC(=O)N2CCNC(=O)C2(C)C)cc1C has NF-kB reporter at least equal to 1.
Resp: 1

Req: I'd appreciate it if you could say whether COc1cc2nc(N3CCN(C(=O)C4CCCO4)CC3)nc(N)c2cc1OC.Cl (stereo not drawn) has NF-kB reporter at least equal to 1.
Resp: -1

Req: I'd appreciate it if you could say whether Cc1ccc(C=NN=C(c2ccccc2)c2ccccc2)o1 has NF-kB reporter at least equal to 1.
Resp: -1

Source listed as the supplement of paper PMC10646978.
